Every entry's value here was drawn from patent US20260347373A1.

Measured pIC50 accompanies every entry in the list below.
# ASSAY_SYSTEM: WT KRAS (Homo sapiens, UniProt P01116)
# Sequence (P01116 1-188 isoform P01116-2): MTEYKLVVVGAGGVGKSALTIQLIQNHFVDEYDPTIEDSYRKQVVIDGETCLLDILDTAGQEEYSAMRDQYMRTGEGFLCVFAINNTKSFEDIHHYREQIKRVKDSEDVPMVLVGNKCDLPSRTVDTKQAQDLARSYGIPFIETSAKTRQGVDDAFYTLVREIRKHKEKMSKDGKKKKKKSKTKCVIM
# METHOD_NOTES: KRAS WT Probe Displacement Assay (TR-FRET, GDP-loaded)
# Assay type: binding
# STATED_CONDITIONS: KRAS WT, read-out: KRAS^WT Probe Displacement Assay IC50
pIC50: −log10 of the molar value.
REPORTED_METRIC: pIC50

molecule="Cc1cc(N)cc(-c2nc3c4c(nc(OC[C@@H]5OC[C@H]5N(C)C)nc4c2F)N2C[C@H]4CC[C@H](N4)[C@H]2CCO3)c1C(F)(F)F [Example 130]" assay_system="WT KRAS (Homo sapiens, UniProt P01116)" reported_metric=pIC50 result="6.00 to 8.52"
molecule="Cc1cc(N)cc(-c2nc3c4c(nc(OCC5(CN6CC7C(C6)C7(F)F)CC5)nc4c2F)N2C[C@H]4CC[C@H](N4)[C@H]2CCO3)c1C(F)(F)F (some centres unmarked) [Example 168]" assay_system="WT KRAS (Homo sapiens, UniProt P01116)" reported_metric=pIC50 result="6.00 to 8.52"
molecule="C=C1CN2C[C@H](F)C[C@@]2(COc2nc3c4c(nc(-c5cc(N)cc(C)c5C(F)(F)F)c(F)c4n2)OCC[C@@H]2[C@@H]4CC[C@H](CN32)N4)C1 [Example 208]" assay_system="WT KRAS (Homo sapiens, UniProt P01116)" reported_metric=pIC50 result="8.52 to 9.52"
molecule="[2H]C([2H])([2H])N1C[C@H](F)C[C@H]1[C@H](C)Oc1nc2c3c(nc(-c4cc(N)cc(C)c4C(F)(F)F)c(F)c3n1)OCC[C@@H]1[C@@H]3CC[C@H](CN21)N3 [Example 221]" assay_system="WT KRAS (Homo sapiens, UniProt P01116)" reported_metric=pIC50 result="6.00 to 8.52"
molecule="C=C1CN2C[C@H](F)C[C@@]2(COc2nc3c4c(nc(-c5cc(N)cc(Cl)c5C(F)(F)F)c(F)c4n2)OCC[C@@H]2[C@@H]4CC[C@H](CN32)N4)C1 [Example 209]" assay_system="WT KRAS (Homo sapiens, UniProt P01116)" reported_metric=pIC50 result="6.00 to 8.52"
